Hello, the source for this data is patent US10766928B2, in case you need it.

- System: endosomes of Jurkat lymphocytes
- Protocol Details: Endosome disruption in Jurkat lymphocytes: release of carboxyfluorescein from disulfide probe Compound 2, flow cytometry
- Study Conditions: Table 2; % of the effect of compound 1, calculated span of dose-response curve, ± standard deviation; Jurkat, 14 h
- Description: The effects of the compounds of the invention on human Juikat leukemia cells were evaluated using flow cytometry-based assays of potency, efficacy, and toxicity. […] Analysis of flow cytometry data by non-linear regression was used to determine IC50 values for potency with the efficacy expressed as a percentage. […] Dose-dependent effects on cellular viability after 48 h at 37° C. in culture were also measured by flow cytometry. […]
Non-standard residues stand in square brackets, D forms with d. Residues, ends and D or L forms follow the SMILES beside them. Aib = CC(C)(N)C(=O)O
Assay Endpoint: Efficacy (% of 1)

Prompt: Give me measured Efficacy (% of 1), please, for this compound: CC(C)[C@H](NC(=O)[C@@H](NC(=O)[C@@H]1CCCN1C(=O)[C@@H]1CCCN1C(=O)[C@H](C)NC(=O)[C@H](Cc1ccc(O)cc1)NC(=O)[C@H](C)NC(=O)[C@H](Cc1c[nH]c2ccccc12)NC(=O)[C@H](Cc1c[nH]c2ccccc12)NC(=O)C(C)(C)NC(=O)C(C)(C)NC(=O)C(C)(C)NC(=O)C(C)(C)N)C(C)C)C(N)=O [Compound 48] (H-[Aib][Aib][Aib][Aib]WWAYAPPVV-NH2)
Response: <10%

Prompt: Give me measured Efficacy (% of 1), please, for this compound: CC(=O)NC(C)(C)C(=O)NC(C)(C)C(=O)NC(C)(C)C(=O)NC(C)(C)C(=O)N[C@@H](Cc1c[nH]c2ccccc12)C(=O)N[C@@H](Cc1c[nH]c2ccccc12)C(=O)N[C@@H](C)C(=O)N[C@@H](Cc1c[nH]c2ccccc12)C(=O)N[C@@H](Cc1ccc(O)cc1)C(=O)N1CCC[C@H]1C(=O)N1CCC[C@H]1C(=O)N[C@H](C(=O)N[C@H](C(N)=O)C(C)C)C(C)C [Compound 78] (Ac-[Aib][Aib][Aib][Aib]WWAWYPPVV-NH2)
Response: 70 ± 2%

Prompt: Give me measured Efficacy (% of 1), please, for this compound: CC(C)[C@H](NC(=O)[C@@H](NC(=O)[C@@H]1CCCN1C(=O)[C@@H]1CCCN1C(=O)[C@H](Cc1c[nH]c2ccccc12)NC(=O)[C@H](Cc1ccc(O)cc1)NC(=O)[C@H](C)NC(=O)[C@H](Cc1c[nH]c2ccccc12)NC(=O)[C@H](C)NC(=O)C(C)(C)NC(=O)C(C)(C)NC(=O)C(C)(C)NC(=O)C(C)(C)N)C(C)C)C(N)=O [Compound 45] (H-[Aib][Aib][Aib][Aib]AWAYWPPVV-NH2)
Response: <10%

Prompt: Give me measured Efficacy (% of 1), please, for this compound: CC(C)[C@H](NC(=O)[C@@H](NC(=O)[C@@H]1CCCN1C(=O)[C@@H]1CCCN1C(=O)[C@H](Cc1ccc(O)cc1)NC(=O)[C@H](Cc1c[nH]c2ccccc12)NC(=O)[C@H](C)NC(=O)[C@H](Cc1c[nH]c2ccccc12)NC(=O)[C@H](Cc1c[nH]c2ccccc12)NC(=O)[C@H](C)NC(=O)[C@H](Cc1c[nH]c2ccccc12)NC(=O)[C@H](Cc1c[nH]c2ccccc12)NC(=O)C(C)(C)NC(=O)C(C)(C)NC(=O)C(C)(C)NC(=O)C(C)(C)N)C(C)C)C(N)=O [Compound 79] (H-[Aib][Aib][Aib][Aib]WWAWWAWYPPVV-NH2)
Response: 86 ± 5%

Prompt: Give me measured Efficacy (% of 1), please, for this compound: CC(C)[C@H](NC(=O)[C@@H](NC(=O)[C@@H]1CCCN1C(=O)[C@@H]1CCCN1C(=O)[C@H](Cc1c[nH]c2ccccc12)NC(=O)[C@H](Cc1ccc(O)cc1)NC(=O)[C@H](C)NC(=O)[C@H](C)NC(=O)[C@H](Cc1c[nH]c2ccccc12)NC(=O)C(C)(C)NC(=O)C(C)(C)NC(=O)C(C)(C)NC(=O)C(C)(C)N)C(C)C)C(N)=O [Compound 46] (H-[Aib][Aib][Aib][Aib]WAAYWPPVV-NH2)
Response: <10%
